test system: IAV (A/H3N2); test: CPE reduction assay, influenza A/H3N2 in MDCK cells; assay type: cell-based, influenza A virus A/H3N2 (A/Victoria/361/11 or A/HK/7/87); settings: Influenza A virus, H3N2, 72 h, microscopic scoring of cytopathic effect, day 3, read-out: Antiviral EC50, IAV (A/H3N2), CPE
Recorded Metric: pEC50
Field pEC50 (float): negative decimal logarithm of the concentration in molar.

Solved cases (2 shown):
CCCCCCCCOC1C(OC)OC(COCCOCCOCCOCCn2cc(CSC3(C(=O)O)CC(O)C(NC(C)=O)C(C(O)C(O)CO)O3)nn2)C(OCc2ccc(OC)cc2)C1OCCCCCCCC (stereo not drawn) [Compound 12b] : 5.05
NC(=O)c1ncn([C@@H]2O[C@H](CO)[C@@H](O)[C@H]2O)n1 [Ribavirin, reference compound] : 4.52

Query :: Which pEC50 value is on record for CCCCCCCCOCC1OC(CCCSC2(C(=O)O)CC(O)C(NC(C)=O)C(C(O)C(O)CO)O2)C=CC1OCCCCCCCC (stereo not drawn) [Compound 18b] ?
Result :: 5.32
